molecular target: BaF3 cell lines stably transfected with kinase EGFR L858R/T790M/C797S (Homo sapiens, UniProt P00533, T790M/C797S/L858R, cells depend on it); assay: Growth inhibition of BaF3 cell line stably transfected with kinase EGFR L858R/T790M/C797S (MTS); assay type: cell-based; details: 48 h, read-out: growth inhibitory activity IC50, L858R/T790M/C797S
Sequence (P00533 whole entry T790M/C797S/L858R): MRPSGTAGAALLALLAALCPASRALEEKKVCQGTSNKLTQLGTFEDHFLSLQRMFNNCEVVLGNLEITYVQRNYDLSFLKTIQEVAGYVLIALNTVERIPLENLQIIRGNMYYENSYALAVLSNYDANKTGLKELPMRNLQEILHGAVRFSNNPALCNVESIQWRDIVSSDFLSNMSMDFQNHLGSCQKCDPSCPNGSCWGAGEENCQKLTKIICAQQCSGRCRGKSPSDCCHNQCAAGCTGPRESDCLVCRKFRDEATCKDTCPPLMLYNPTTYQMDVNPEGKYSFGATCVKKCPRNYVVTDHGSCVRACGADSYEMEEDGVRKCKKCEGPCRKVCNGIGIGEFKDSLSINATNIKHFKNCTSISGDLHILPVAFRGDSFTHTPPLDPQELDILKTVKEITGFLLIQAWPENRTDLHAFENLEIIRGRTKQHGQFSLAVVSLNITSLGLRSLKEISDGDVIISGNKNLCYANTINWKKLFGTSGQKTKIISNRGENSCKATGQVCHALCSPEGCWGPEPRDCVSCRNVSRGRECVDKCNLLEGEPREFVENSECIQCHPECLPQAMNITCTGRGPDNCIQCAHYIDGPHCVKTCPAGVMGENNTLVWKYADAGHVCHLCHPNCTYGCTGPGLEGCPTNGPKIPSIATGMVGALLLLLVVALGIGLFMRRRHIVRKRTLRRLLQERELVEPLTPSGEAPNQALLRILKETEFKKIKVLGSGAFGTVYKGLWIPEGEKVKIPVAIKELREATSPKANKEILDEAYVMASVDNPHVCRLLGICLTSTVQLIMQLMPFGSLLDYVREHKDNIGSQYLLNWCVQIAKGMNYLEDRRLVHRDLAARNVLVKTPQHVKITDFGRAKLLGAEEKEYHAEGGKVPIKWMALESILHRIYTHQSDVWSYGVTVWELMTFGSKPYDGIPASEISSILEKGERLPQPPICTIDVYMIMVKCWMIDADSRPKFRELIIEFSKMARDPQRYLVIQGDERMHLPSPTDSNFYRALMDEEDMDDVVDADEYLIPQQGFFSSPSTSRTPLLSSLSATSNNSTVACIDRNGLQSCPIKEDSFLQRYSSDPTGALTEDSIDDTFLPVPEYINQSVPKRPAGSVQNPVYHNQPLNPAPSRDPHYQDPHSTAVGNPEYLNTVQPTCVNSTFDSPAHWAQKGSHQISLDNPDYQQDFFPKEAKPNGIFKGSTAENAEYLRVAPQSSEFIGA
property measured: GI50

INSERT INTO results (chemical_string, measurement) VALUES
  ('C=Cc1cnc(Nc2cc3c(cc2OC(F)(F)F)CCN(C)C3)nc1Nc1ccc2nccnc2c1N(C)S(C)(=O)=O', '50 to 500 nM'),
  ('C=Cc1cnc(Nc2cc(CC)c(N3CCC(N4CCN(C)CC4)CC3)nc2OC)nc1Nc1ccc2nccnc2c1S(C)(=O)=O', '500 to 2500 nM'),
  ('C=Cc1cnc(Nc2cc(CC)c(N3CCC(N(C)C)CC3)cc2OC)nc1Nc1ccc2nccnc2c1N(C)S(C)(=O)=O', '≤ 50 nM'),
  ('C=Cc1cnc(Nc2ccc(N3CCC(N4CCN(C)CC4)CC3)c(CC)c2)nc1Nc1ccc2nccnc2c1S(=O)(=O)NC', '50 to 500 nM'),
  ('C=Cc1cnc(Nc2cc(CC)c(N3CCC(N(C)C)CC3)cc2OC)nc1Nc1ccc2nccnc2c1P(C)(C)=O', '≤ 50 nM'),
  ('C=Cc1cnc(Nc2cc(CC)c(N3CCN(C)CC3)cc2OC)nc1Nc1ccc2nccnc2c1N(C)S(C)(=O)=O', '≤ 50 nM'),
  ('C=Cc1cnc(Nc2cc(C(C)C)c(N3CCC(N4CCN(C)CC4)CC3)cc2OC)nc1Nc1ccc2nccnc2c1NS(C)(=O)=O', '50 to 500 nM');

----------
molecular target: BaF3 cell lines stably transfected with kinase EGFR Del/T790M/C797S (Homo sapiens, UniProt P00533, T790M/C797S, cells depend on it, form not given); test: Growth inhibition of BaF3 cell line stably transfected with kinase EGFR Del/T790M/C797S (MTS); assay type: cell-based; details: 48 h, read-out: growth inhibitory activity IC50, Del/T790M/C797S
Sequence (P00533 with tags, fused parts or gaps DEL746-750/T790M/C797S, form open): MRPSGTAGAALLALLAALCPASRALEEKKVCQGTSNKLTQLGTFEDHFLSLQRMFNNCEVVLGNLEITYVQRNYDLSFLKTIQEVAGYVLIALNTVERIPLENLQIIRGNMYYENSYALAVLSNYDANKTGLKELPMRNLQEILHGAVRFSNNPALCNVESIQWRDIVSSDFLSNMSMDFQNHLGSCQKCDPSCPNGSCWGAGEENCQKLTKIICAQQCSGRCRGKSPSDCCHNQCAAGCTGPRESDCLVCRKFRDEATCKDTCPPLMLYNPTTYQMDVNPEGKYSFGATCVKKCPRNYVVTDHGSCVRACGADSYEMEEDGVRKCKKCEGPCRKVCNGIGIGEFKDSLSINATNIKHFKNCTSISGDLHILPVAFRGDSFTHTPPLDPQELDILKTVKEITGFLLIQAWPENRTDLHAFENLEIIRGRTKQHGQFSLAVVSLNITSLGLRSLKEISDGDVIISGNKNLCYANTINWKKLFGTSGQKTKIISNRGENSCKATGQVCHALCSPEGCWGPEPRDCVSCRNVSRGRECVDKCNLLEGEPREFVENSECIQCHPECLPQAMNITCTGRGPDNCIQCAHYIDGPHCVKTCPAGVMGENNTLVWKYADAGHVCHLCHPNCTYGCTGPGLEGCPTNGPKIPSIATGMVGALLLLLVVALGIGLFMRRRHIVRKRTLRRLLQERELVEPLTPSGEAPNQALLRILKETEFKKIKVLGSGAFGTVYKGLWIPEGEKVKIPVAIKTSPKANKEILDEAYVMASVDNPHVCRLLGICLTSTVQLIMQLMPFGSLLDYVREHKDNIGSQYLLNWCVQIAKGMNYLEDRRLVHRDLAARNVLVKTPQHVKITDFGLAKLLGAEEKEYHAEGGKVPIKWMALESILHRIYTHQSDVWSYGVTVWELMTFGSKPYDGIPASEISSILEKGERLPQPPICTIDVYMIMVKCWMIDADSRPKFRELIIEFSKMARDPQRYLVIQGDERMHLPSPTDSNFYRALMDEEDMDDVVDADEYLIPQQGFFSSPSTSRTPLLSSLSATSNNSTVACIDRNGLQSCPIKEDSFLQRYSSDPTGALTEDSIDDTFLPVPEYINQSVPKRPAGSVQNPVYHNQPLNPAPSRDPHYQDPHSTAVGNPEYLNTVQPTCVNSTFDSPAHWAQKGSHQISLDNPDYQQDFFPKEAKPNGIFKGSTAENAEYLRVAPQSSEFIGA
property measured: GI50

INSERT INTO results (chemical_string, measurement) VALUES
  ('C=Cc1cnc(Nc2cc(C(C)C)c(N3CCC(N4CCN(C)CC4)CC3)cc2OC)nc1Nc1ccc2nccnc2c1S(C)(=O)=O', '0.5 to 2.5 µM'),
  ('C=Cc1cnc(Nc2cc(F)c(N3CCC(N4CCN(C)CC4)CC3)c(F)c2)nc1Nc1ccc2nccnc2c1S(C)(=O)=O', '0.5 to 2.5 µM'),
  ('C=Cc1cnc(Nc2cc(C(C)C)c(N3CCC(N4CCN(C)CC4)CC3)cc2OC)nc1Nc1ccc2nccnc2c1S(=O)(=O)NC', '0.5 to 2.5 µM'),
  ('C=Cc1cnc(Nc2cc(C)c(N3CCC(N4CCN(C)CC4)CC3)cc2OC)nc1Nc1ccc2nccnc2c1S(=O)(=O)NC(C)C', '0.5 to 2.5 µM'),
  ('C=C(C)c1cnc(Nc2cc(C(C)C)c(N3CCC(N4CCN(C)CC4)CC3)cc2OC)nc1Nc1ccc2nccnc2c1N(C)S(C)(=O)=O', '0.05 to 0.5 µM'),
  ('C=Cc1cnc(Nc2cc[nH]n2)nc1Nc1ccc2nccnc2c1N(C)S(C)(=O)=O', '0.5 to 2.5 µM'),
  ('CCc1cc(Nc2ncc(/C=C/C3CC3)c(Nc3ccc4nccnc4c3P(C)(C)=O)n2)c(OC)cc1N1CCC(N2CCN(C)CC2)CC1', '0.05 to 0.5 µM');

----------
Reported GI50 values for a set of compounds
Molecular target: BaF3 cell lines stably transfected with kinase EGFR L858R/T790M/C797S (Homo sapiens, UniProt P00533, T790M/C797S/L858R, cells depend on it)
Test: Growth inhibition of BaF3 cell line stably transfected with kinase EGFR L858R/T790M/C797S (MTS)
Format: cell-based
Conditions: 48 h, read-out: growth inhibitory activity IC50, L858R/T790M/C797S
Procedure: Biological Activity Assay: Growth Inhibitory Activity of Compounds on Cell Lines Stably Transfected with Kinase The activity of compounds against various mutants of kinase EGFR was evaluated by their effect of inhibiting growth of BaF3 cell lines stably transfected with kinase. […] 4) IC50 calculation: The semi-inhibitory concentration of the compounds acting on cells was calculated using GradPad Prism 5 software according to the measured cell growth inhibition rate.
property measured: GI50

INSERT INTO results (compound, measurement) VALUES
  ('C=Cc1cnc(Nc2cc(CC)c(N3CCC(N(C)C)C3)cc2OC)nc1Nc1ccc2nccnc2c1S(=O)(=O)NC (centres unmarked) [IV-14]', '50 to 500 nM'),
  ('C=Cc1cnc(Nc2cc(CC)c(N3CCC(N4CCN(C)CC4)CC3)nc2OC)nc1Nc1ccc2nccnc2c1P(C)(C)=O [Compound I-5]', '≤ 50 nM'),
  ('C=Cc1cnc(Nc2cc(CC)c(N3CCC(N4CCN(C)CC4)CC3)cc2OC)nc1Nc1ccc2nccnc2c1N(C)S(C)(=O)=O [II-1]', '≤ 50 nM'),
  ('C=Cc1cnc(Nc2cc(C3CC3)c(N3CCC(N4CCN(C)CC4)CC3)cc2OC)nc1Nc1ccc2nccnc2c1P(C)(C)=O [Compound I-17]', '50 to 500 nM'),
  ('C=Cc1cnc(Nc2cc(CC)c(N3CCC(C4CN(C)C4)CC3)cc2OC)nc1Nc1ccc2nccnc2c1N(C)S(C)(=O)=O [II-54]', '≤ 50 nM'),
  ('C=Cc1cnc(Nc2cc(C)c(N3CCC(N4CCN(C)CC4)CC3)cc2OC)nc1Nc1ccc2nccnc2c1S(C)(=O)=O [III-9]', '500 to 2500 nM'),
  ('C=C(C)c1cnc(Nc2cc(C)c(N3CCC(N4CCN(C)CC4)CC3)nc2OC)nc1Nc1ccc2nccnc2c1P(C)(C)=O [Compound I-20]', '500 to 2500 nM'),
  ('C=Cc1cnc(Nc2cc3c(cc2OC)CCN(C)C3)nc1Nc1ccc2nccnc2c1N(C)S(C)(=O)=O [II-73]', '50 to 500 nM'),
  ('C=Cc1cnc(Nc2cccc(C3CCN(C)CC3)c2)nc1Nc1ccc2nccnc2c1P(C)(C)=O [Compound I-22]', '50 to 500 nM'),
  ('C=C(C)c1cnc(Nc2cc[nH]n2)nc1Nc1ccc2nccnc2c1N(C)S(C)(=O)=O [II-69]', '50 to 500 nM'),
  ('C=Cc1cnc(Nc2cc(F)c(N3CCC(N4CCN(C)CC4)CC3)c(F)c2)nc1Nc1ccc2nccnc2c1S(C)(=O)=O [III-16]', '500 to 2500 nM'),
  ('C=C(C)c1cnc(Nc2ccc(N3CCC(N4CCN(C)CC4)CC3)nc2OC)nc1Nc1ccc2nccnc2c1P(C)(C)=O [Compound I-19]', '50 to 500 nM'),
  ('C=Cc1cnc(Nc2cc(C3CC3)c(N3CCC(N4CCN(C)CC4)CC3)cc2OC)nc1Nc1ccc2nccnc2c1S(=O)(=O)C(C)C [III-21]', '50 to 500 nM'),
  ('C=Cc1cnc(Nc2cc(C3CC3)c(N3CCC(N4CCN(C)CC4)CC3)cc2OC)nc1Nc1ccc2nccnc2c1S(=O)(=O)NC [IV-7]', '50 to 500 nM');

----------
Target: BaF3 cell lines stably transfected with kinase EGFR Del (Homo sapiens, UniProt P00533, cells depend on it, form not given)
Sequence (P00533 with tags, fused parts or gaps DEL746-750): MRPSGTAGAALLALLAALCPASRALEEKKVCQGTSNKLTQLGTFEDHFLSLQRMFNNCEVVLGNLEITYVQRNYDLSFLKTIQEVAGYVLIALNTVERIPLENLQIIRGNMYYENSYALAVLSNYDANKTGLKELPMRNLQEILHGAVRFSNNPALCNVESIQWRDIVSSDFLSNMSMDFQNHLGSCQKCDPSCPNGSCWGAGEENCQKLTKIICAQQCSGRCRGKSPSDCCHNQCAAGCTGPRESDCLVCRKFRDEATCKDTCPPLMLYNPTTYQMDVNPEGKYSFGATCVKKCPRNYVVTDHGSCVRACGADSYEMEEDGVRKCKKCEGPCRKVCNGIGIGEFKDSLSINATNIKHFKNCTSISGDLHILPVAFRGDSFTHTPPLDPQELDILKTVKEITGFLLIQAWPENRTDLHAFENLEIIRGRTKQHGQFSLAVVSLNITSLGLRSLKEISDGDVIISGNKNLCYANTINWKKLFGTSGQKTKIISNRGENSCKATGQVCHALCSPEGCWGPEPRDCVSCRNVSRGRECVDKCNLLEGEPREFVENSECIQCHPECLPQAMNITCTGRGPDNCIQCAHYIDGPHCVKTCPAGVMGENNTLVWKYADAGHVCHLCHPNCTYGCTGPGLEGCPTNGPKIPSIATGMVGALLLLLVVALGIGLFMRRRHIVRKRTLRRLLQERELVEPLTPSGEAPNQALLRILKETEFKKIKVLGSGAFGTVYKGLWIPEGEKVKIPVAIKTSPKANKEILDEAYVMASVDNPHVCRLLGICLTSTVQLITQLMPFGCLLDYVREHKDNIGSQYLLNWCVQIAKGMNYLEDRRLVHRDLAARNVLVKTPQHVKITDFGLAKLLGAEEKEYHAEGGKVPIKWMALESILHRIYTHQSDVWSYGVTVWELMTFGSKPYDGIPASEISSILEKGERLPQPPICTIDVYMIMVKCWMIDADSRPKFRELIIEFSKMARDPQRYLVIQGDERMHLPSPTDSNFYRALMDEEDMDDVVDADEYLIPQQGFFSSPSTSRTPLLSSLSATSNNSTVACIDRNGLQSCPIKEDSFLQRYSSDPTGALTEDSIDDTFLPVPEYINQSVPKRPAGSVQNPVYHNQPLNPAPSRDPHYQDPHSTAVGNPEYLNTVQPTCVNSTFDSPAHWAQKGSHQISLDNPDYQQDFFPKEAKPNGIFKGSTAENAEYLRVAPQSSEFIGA
Assay: Growth inhibition of BaF3 cell line stably transfected with kinase EGFR Del (MTS)
Assay type: cell-based
Settings: 48 h, read-out: growth inhibitory activity IC50, Del
Procedure: Biological Activity Assay: Growth Inhibitory Activity of Compounds on Cell Lines Stably Transfected with Kinase The activity of compounds against various mutants of kinase EGFR was evaluated by their effect of inhibiting growth of BaF3 cell lines stably transfected with kinase. […] 4) IC50 calculation: The semi-inhibitory concentration of the compounds acting on cells was calculated using GradPad Prism 5 software according to the measured cell growth inhibition rate.
property measured: GI50

INSERT INTO assay_data (molecule, measurement) VALUES
  ('C=Cc1cnc(Nc2cc(C)c(N3CCC(N4CCN(C)CC4)CC3)cc2OC)nc1Nc1ccc2nccnc2c1S(=O)(=O)NC [IV-2]', '50 to 500 nM'),
  ('C=Cc1cnc(Nc2cc(C(C)C)c(N3CCC(N4CCN(C)CC4)CC3)cc2OC)nc1Nc1ccc2nccnc2c1S(=O)(=O)C(C)C [III-20]', '500 to 2500 nM'),
  ('C=Cc1cnc(Nc2ccc(N3CCC(N4CCN(C)CC4)CC3)cc2OC)nc1Nc1ccc2nccnc2c1N(C)S(C)(=O)=O [II-16]', '50 to 500 nM'),
  ('C=Cc1cnc(Nc2cc(CC3CC3)c(N3CCC(N4CCN(C)CC4)CC3)cc2OC)nc1Nc1ccc2nccnc2c1S(=O)(=O)NC [IV-8]', '50 to 500 nM'),
  ('C=Cc1cnc(Nc2cc(C(C)C)c(N3CCC(N4CCN(C)CC4)CC3)cc2OC)nc1Nc1ccc2nccnc2c1S(=O)(=O)NC [IV-6]', '500 to 2500 nM'),
  ('C=Cc1cnc(Nc2cc(CC)c(N3CCC(N(C)C)CC3)cc2OC)nc1Nc1ccc2nccnc2c1N(C)S(C)(=O)=O [II-2]', '≤ 50 nM'),
  ('C=Cc1cnc(Nc2cc(CC)c(N3CCC(N4CCN(C)CC4)CC3)cc2OC(F)(F)F)nc1Nc1ccc2nccnc2c1P(C)(C)=O [Compound I-6]', '50 to 500 nM'),
  ('C=Cc1cnc(Nc2cc(C)c(N3CCC(N4CCN(C)CC4)CC3)cc2OC)nc1Nc1ccc2nccnc2c1P(C)(C)=O [Compound I-9]', '≤ 50 nM'),
  ('C=Cc1cnc(Nc2cc(C3CC3)c(N3CCC(N4CCN(C)CC4)CC3)cc2OC)nc1Nc1ccc2nccnc2c1NS(C)(=O)=O [II-36]', '≤ 50 nM'),
  ('C=Cc1cnc(Nc2cc(CC)c(N3CCC(N(C)C)CC3)cc2OC)nc1Nc1ccc2nccnc2c1S(C)(=O)=O [III-2]', '500 to 2500 nM'),
  ('C=Cc1cnc(Nc2cc(CC)c(N3CCC(N(C)C)C3)cc2OC)nc1Nc1ccc2nccnc2c1S(=O)(=O)NC (stereo not shown) [IV-14]', '50 to 500 nM'),
  ('C=Cc1cnc(Nc2cc(F)c(N3CCC(N4CCN(C)CC4)CC3)c(F)c2)nc1Nc1ccc2nccnc2c1S(C)(=O)=O [III-16]', '500 to 2500 nM'),
  ('C=Cc1cnc(Nc2ccn(C(C)C)n2)nc1Nc1ccc2nccnc2c1N(C)S(C)(=O)=O [II-61]', '500 to 2500 nM'),
  ('C=Cc1cnc(Nc2ccc(N3CCC(N4CCN(C)CC4)CC3)cc2OC)nc1Nc1ccc2nccnc2c1NS(=O)(=O)C(C)C [II-42]', '500 to 2500 nM'),
  ('C=Cc1cnc(Nc2cc(CC)c(N3CCC(N(C)C)C3)cc2OC)nc1Nc1ccc2nccnc2c1S(C)(=O)=O (stereo not shown) [III-3]', '500 to 2500 nM'),
  ('C=Cc1cnc(Nc2cc(CC)c(N3CCC(N4CCN(C)CC4)CC3)nc2OC)nc1Nc1ccc2nccnc2c1N(C)S(C)(=O)=O [II-5]', '50 to 500 nM'),
  ('C=Cc1cnc(Nc2cc(CC)c(N3CCC(N4CCN(C)CC4)CC3)cc2OC)nc1Nc1ccc2nccnc2c1N(C)S(C)(=O)=O [II-53]', '50 to 500 nM'),
  ('C=Cc1cnc(Nc2cc(C)c(N3CCC(N4CCN(C)CC4)CC3)cc2OC)nc1Nc1ccc2nccnc2c1S(=O)(=O)NC(C)C [IV-17]', '500 to 2500 nM'),
  ('C=Cc1cnc(Nc2cc(CC)c(N3CCC(N(C)C)CC3)cc2OC)nc1Nc1ccc2nccnc2c1NS(C)(=O)=O [II-39]', '≤ 50 nM'),
  ('C=Cc1cnc(Nc2cnn(CC)c2)nc1Nc1ccc2nccnc2c1N(C)S(C)(=O)=O [II-66]', '500 to 2500 nM'),
  ('C=C(C)c1cnc(Nc2ccc(N3CCC(N4CCN(C)CC4)CC3)c(CC)c2)nc1Nc1ccc2nccnc2c1N(C)S(C)(=O)=O [II-24]', '≤ 50 nM'),
  ('C=Cc1cnc(Nc2cc(CC)c(N3CCC(N4CCN(C)CC4)CC3)cc2OC)nc1Nc1ccc2nccnc2c1S(=O)(=O)NC [IV-3]', '50 to 500 nM'),
  ('C=Cc1cnc(Nc2ccc(N3CCC(N4CCN(C)CC4)CC3)c(CC)c2)nc1Nc1ccc2nccnc2c1NS(C)(=O)=O [II-38]', '≤ 50 nM'),
  ('C=Cc1cnc(Nc2cc(C(C)C)c(N3CCC(N4CCN(C)CC4)CC3)cc2OC)nc1Nc1ccc2nccnc2c1S(C)(=O)=O [III-11]', '500 to 2500 nM'),
  ('C=Cc1cnc(Nc2ccc(N3CCC(N4CCN(C)CC4)CC3)c(F)c2F)nc1Nc1ccc2nccnc2c1NS(C)(=O)=O [II-45]', '50 to 500 nM'),
  ('C=Cc1cnc(Nc2cc(CC3CC3)c(N3CCC(N4CCN(C)CC4)CC3)cc2OC)nc1Nc1ccc2nccnc2c1S(C)(=O)=O [III-13]', '50 to 500 nM'),
  ('C=Cc1cnc(Nc2cc(CC)c(N3CCC(N4CCN(C)CC4)CC3)cc2OC)nc1Nc1ccc2nccnc2c1P(C)(C)=O [Compound I-1]', '≤ 50 nM'),
  ('C=Cc1cnc(Nc2cc(CC)c(N3CCC(N4CCN(C)CC4)CC3)nc2OC)nc1Nc1ccc2nccnc2c1S(C)(=O)=O [III-10]', '500 to 2500 nM');
